- Target system: hKv3.1b (Homo sapiens, UniProt P48547)
- Construct: expressed in transfected cells
- Sequence (P48547 1-585 isoform P48547-2): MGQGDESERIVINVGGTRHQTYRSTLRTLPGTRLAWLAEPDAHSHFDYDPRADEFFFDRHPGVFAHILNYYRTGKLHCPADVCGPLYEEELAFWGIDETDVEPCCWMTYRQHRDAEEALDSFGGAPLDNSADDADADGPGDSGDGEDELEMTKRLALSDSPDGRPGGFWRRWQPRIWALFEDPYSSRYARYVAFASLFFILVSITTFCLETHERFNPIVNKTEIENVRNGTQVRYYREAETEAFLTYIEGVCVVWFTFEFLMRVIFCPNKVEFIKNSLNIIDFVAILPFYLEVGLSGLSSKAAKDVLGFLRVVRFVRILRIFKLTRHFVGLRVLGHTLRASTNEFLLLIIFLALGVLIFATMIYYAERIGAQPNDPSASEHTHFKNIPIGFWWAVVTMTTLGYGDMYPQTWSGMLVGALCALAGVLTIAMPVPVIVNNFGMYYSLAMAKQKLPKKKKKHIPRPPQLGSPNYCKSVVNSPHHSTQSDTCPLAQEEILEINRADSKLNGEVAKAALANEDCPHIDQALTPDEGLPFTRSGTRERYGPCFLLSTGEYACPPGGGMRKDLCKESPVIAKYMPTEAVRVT
- Assay summary: Automated patch clamp (QPatch-16x) on HEK-293 cells stably expressing hKv3.1b
- Assay type: cell-based
- Condition details: maximum absolute hyperpolarizing shift of activation threshold at tested concentrations 0.37-30 μM
Property name: Threshold Shift (mV)

1: Cc1ccc(S(=O)(=O)n2ccc(C(=O)NCc3cnn(C)c3)c2)cc1
2: Cc1ccc(S(=O)(=O)n2ccc(C(=O)NCc3cscn3)c2)cc1
Input: Which of the two gives a bigger number for Threshold Shift: 1 or 2 ? Please indicate the selected item by its label.
Output: 1

a: Cc1ccc(S(=O)(=O)n2ccc(C(=O)NCc3cn(C)nn3)c2)cc1
b: Cc1ccc(S(=O)(=O)n2ccc(C(=O)NCc3cc(C)n[nH]3)c2)cc1
Input: Which of the two gives a bigger number for Threshold Shift: a or b ? Please indicate the selected item by its label.
Output: b
(b: 25 mV, a: 17 mV)

P: Cc1ccc(S(=O)(=O)n2ccc(C(=O)NCc3nnc(C)s3)c2)cc1
Q: Cc1ccc(S(=O)(=O)n2ccc(C(=O)NCc3ncn(C)n3)c2)cc1
Input: Given the listed items, does P or Q have the lesser reported Threshold Shift? Please indicate the selected item by its label.
Output: P
(P: 17 mV, Q: 25 mV)

1: COc1ccc(S(=O)(=O)n2ccc(C(=O)NCc3cnn(C)c3)c2)cc1
2: O=C(NCc1cnccn1)c1ccn(S(=O)(=O)c2ccc(Cl)cc2)c1
3: Cc1cc(CNC(=O)c2ccn(S(=O)(=O)c3ccccc3)c2)on1
Input: With regard to Threshold Shift, arrange the entries in ascending order, please. Arrange the labels as the request states and list them.
Output: 3, 1, 2
(3: 12 mV, 1: 18 mV, 2: 28 mV)

----------
- Assay summary: In vivo pharmacokinetic time profile in rats (plasma and brain)
- Condition details: male, Sprague Dawley, rat, brain, subcutaneous; read-out: measured brain/plasma ratio
Property name: Kp
The reply should be a number, written without any unit.

Input: So what's the measured Kp for this one? Cc1ccc(S(=O)(=O)n2ccc(C(=O)NCc3ncco3)c2)cc1 [Compound 86]
Output: 0.25
